Molecular target: P2Y purinoceptor 4 (Rattus norvegicus, UniProt O35811)
Sequence (O35811 whole entry): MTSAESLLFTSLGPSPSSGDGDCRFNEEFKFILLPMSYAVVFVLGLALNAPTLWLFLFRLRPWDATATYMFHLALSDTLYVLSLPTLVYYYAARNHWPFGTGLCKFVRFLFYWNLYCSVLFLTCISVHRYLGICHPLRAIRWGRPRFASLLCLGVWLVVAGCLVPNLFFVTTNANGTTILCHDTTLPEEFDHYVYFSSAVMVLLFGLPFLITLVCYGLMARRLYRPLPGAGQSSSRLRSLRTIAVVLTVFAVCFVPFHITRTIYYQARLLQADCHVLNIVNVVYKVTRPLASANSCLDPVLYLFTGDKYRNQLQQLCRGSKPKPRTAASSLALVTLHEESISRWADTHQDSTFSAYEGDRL
Assay: Agonist activity at rat P2Y4
MEASURED_ENDPOINT: EC50 (µM)

> print(dat)
                                   molecule                             tested.system  measure.unit  recorded.value
1  Nc1ncnc2c1ncn2[C@@H]1O[C@H](COP(=O)(O)OP(=O)(O)OP(=O)(O)O)[C@@H](O)[C@H]1O [ADENOSINE TRIPHOSPHATE]  P2Y purinoceptor 4 (Rattus norvegicus, UniProt O35811)            µM            1.17

* * *

Assay: Half life in C57BL/6 mouse 2 mg/kg, iv
Conditions: in vivo
MEASURED_ENDPOINT: half-life (h)

> print(dat)
                               smiles.input  recorded.value
1  Cc1cc(F)cc(C)c1COc1ccc2c(-c3ccsc3)cc(C(=O)O)cc2c1             2.7

* * *

Test: in vivo
Details: mouse, po
MEASURED_ENDPOINT: bioavailability (%)

> print(dat)
                               smiles.input  recorded.value
1  O=C(O)c1cc(-c2ccc(C3CCNCC3)cc2)c2ccc(-c3ccc(C(F)(F)F)cc3)cc2c1               5

* * *

Assay: Oral bioavailability in mouse
Settings: in vivo
MEASURED_ENDPOINT: bioavailability (%)

> print(dat)
                                   compound  recorded.value
1  CC(C)(C)CN1CCC2(CC1)CN(c1ccccc1NC(=O)Nc1nc3ccc(Cl)nc3s1)c1c(O)cc(F)c(-c3ccc(F)cc3)c12              30
2  O=C(O)c1cc(-c2ccc(C3CCNCC3)cc2)c2ccc(-c3ccc(C(F)(F)F)cc3)cc2c1 [PPTN]               5

* * *

Molecular target: P2Y purinoceptor 13 (Homo sapiens)
Sequence (Q9BPV8 whole entry): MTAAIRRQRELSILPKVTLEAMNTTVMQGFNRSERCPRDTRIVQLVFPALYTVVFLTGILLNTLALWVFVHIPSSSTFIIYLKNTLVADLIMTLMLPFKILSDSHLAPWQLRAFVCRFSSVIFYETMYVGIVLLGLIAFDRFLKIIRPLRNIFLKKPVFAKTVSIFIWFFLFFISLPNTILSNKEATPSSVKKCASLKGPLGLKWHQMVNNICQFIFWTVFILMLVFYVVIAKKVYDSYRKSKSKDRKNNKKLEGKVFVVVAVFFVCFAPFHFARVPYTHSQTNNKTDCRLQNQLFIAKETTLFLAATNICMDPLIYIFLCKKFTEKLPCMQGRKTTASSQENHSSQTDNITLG
Test: Antagonist activity at human P2Y13
pIC50: −log10 of the molar value.
MEASURED_ENDPOINT: pIC50

> print(dat)
                               smiles.input  recorded.value
1  Cc1nc(/N=N/c2ccc(Cl)c([N+](=O)[O-])c2)c(COP(=O)(O)O)c(C=O)c1O            6.18
2  Cc1nc(/N=N/c2cc([N+](=O)[O-])ccc2Cl)c(COP(=O)(O)O)c(C=O)c1O            5.97

* * *

Assay: Oral bioavailability in C57BL/6 mouse at 50 mg/kg
Conditions: in vivo
MEASURED_ENDPOINT: bioavailability (%)

> print(dat)
                               smiles.input  measure.unit  recorded.value
1  Cc1cc(F)cc(C)c1COc1ccc2c(-c3ccsc3)cc(C(=O)O)cc2c1             %              12

* * *

Test: Half life in rat 1 mg/kg, iv
Format: ADME, organism-based
Conditions: in vivo
MEASURED_ENDPOINT: half-life (h)

> print(dat)
                               smiles.input  recorded.value
1  CC(C)(C)c1ccccc1Oc1ncccc1NC(=O)Nc1ccc(OC(F)(F)F)cc1            15.4
